Data provenance: patent US20250171465A1

# Tested on: KU1919.1
# ASSAY_NAME: Cell Titer Glo (CTG) proliferation assay, KU1919
# Assay type: cell-based
# EXPERIMENTAL_CONTEXT: Homo sapiens, KU-19-19; KU1919.1 cells, 72.0 hrs.; read-out: AVE CTG Proliferation KU1919.1 72.0 hrs.
# Description: Seed cells in 40 μL of cell culture media into each well of 384-well cell culture plate, spin them at room temperature at 1,000 RPM for 1 minute and then transfer the plates into 37° C. 5% CO2 incubator overnight. Next day, treat cells with 40 nL of diluted compound and return to incubator. After compound treatment for 3 days, Add 30 μL of CellTiter-Glo reagent (Promega) into each well to be detected. Then place the plates at room temperature for 30 min followed by reading on EnVision. […]
Record form. Attribute: IC50. Fill in for each entry.

For orientation, consider the following solved cases.
CC(C)(C)OC(=O)N[C@@H](C(=O)NCC[C@H](NC(=O)C1(N)CCN(c2ncnc3[nH]ccc23)CC1)c1ccc(Cl)cc1)C1CCCCC1
1 to 5 µM
NC1(C(=O)N[C@@H](CCOCCCCCNC(=O)[C@H](NC(=O)c2cccc(C3CCCN(C(=O)C45CC(C4)C5)C3)c2)C2CCCCC2)c2ccc(Cl)cc2)CCN(c2ncnc3[nH]ccc23)CC1 (stereo partly drawn)
> 10 µM

Return reported IC50 values for all items listed beneath this line.
1. CC(C)(C)OC(=O)N[C@@H](C(=O)N1CCC(OC2CCN(CC[C@H](NC(=O)C3(N)CCN(c4ncnc5[nH]ccc45)CC3)c3ccc(Cl)cc3)CC2)CC1)C1CCCCC1
2. NC1(C(=O)N[C@@H](CCN2CCC(OC3CCN(C(=O)[C@H](NC(=O)c4cccc(C5CN(C(=O)CNCc6ccc(F)cc6F)C5)c4)C4CCCCC4)CC3)CC2)c2ccc(Cl)cc2)CCN(c2ncnc3[nH]ccc23)CC1
3. C[C@@H]1C[C@@H](O)c2ncnc(N3CCN(C(=O)[C@H](CNCCNC(=O)CN4CCC(CN5CCN(C(=O)c6cccc(C7CCCN(C(=O)CNC8CC8)C7)c6)CC5)CC4)c4ccc(Cl)cc4)CC3)c21 (stereo partly drawn)

Reply:
1: 0.5 to 1 µM; 2: 0.5 to 1 µM; 3: > 10 µM

====

Record form. Attribute: pIC50. Fill in for each entry.
# Tested on: KU1919.1
# ASSAY_NAME: Cell Titer Glo (CTG) proliferation assay, KU1919
# Type: cell-based
# EXPERIMENTAL_CONTEXT: Homo sapiens, KU-19-19; KU1919.1 cells, 72.0 hrs.; read-out: AVE CTG Proliferation KU1919.1 72.0 hrs.
pIC50: −log10 of the molar value.

For orientation, consider the following solved cases.
C[C@@H]1C[C@@H](O)c2ncnc(N3CCN(C(=O)[C@@H](CCN4CCC(CN5CCN(C(=O)[C@H](NC(=O)c6cccc(C7CCCN(C(=O)C8CC8)C7)c6)C6CCCCC6)CC5)CC4)c4ccc(Cl)cc4)CC3)c21 (stereo partly drawn)
5.30 to 6.00
NC1(C(=O)N[C@@H](CCN2CCC(OC3CCN(C(=O)[C@H](NC(=O)c4cccc(C5CCCN(C(=O)CNCc6ccc(F)cc6F)C5)c4F)C4CCCCC4)CC3)CC2)c2ccc(Cl)cc2)CCN(c2ncnc3[nH]ccc23)CC1 (stereo partly drawn)
6.00 to 6.30
CCc1cccc(-c2cc(F)c(C(=O)N3CCN(CC4CCN(CC(C(=O)N5CCN(c6ncnc7c6[C@H](C)C[C@H]7O)CC5)c5ccc(Cl)cc5)CC4)CC3)c(F)c2)c1 (stereo partly drawn)
6.00 to 6.30
C=CC(=O)N1CCN(c2ccc(CCC(=O)N3CCC(OC4CCN(CC[C@H](NC(=O)C5(N)CCN(c6ncnc7[nH]ccc67)CC5)c5ccc(Cl)cc5)CC4)CC3)o2)C(=O)C1
< 5.00
CCc1cccc(-c2cnc(C(=O)N3CCN(CC45CCC(NCC(=O)NCCNC[C@@H](C(=O)N6CCN(c7ncnc8c7[C@H](C)C[C@H]8O)CC6)c6ccc(Cl)cc6)(CC4)CO5)CC3)c(NC(C)=O)c2)c1
5.00 to 5.30
NC1(C(=O)N[C@@H](CCN2CCN(C(=O)CN3CCC(OC4CCN(C(=O)[C@H](NC(=O)c5cccc(C6CN(C(=O)CNC7CC7)C6)c5)C5CCCCC5)CC4)CC3)CC2)c2ccc(Cl)cc2)CCN(c2ncnc3[nH]ccc23)CC1
5.30 to 6.00
CCc1cccc(-c2cnc(C(=O)N3CCC(OC4CCN(CC(=O)NCCNC[C@@H](C(=O)N5CCN(c6ncnc7c6[C@H](C)C[C@H]7O)CC5)c5ccc(Cl)cc5)CC4)CC3)c(NC(=O)CN3CCOCC3)c2)c1
5.30 to 6.00
CCc1cccc(-c2cnc(C(=O)N3CCC(OC4CCN(CC(=O)NCCNC[C@@H](C(=O)N5CCN(c6ncnc7c6[C@H](C)C[C@H]7O)CC5)c5ccc(Cl)cc5)CC4)CC3)c(NC(=O)CNCc3ccncn3)c2)c1
< 5.00

Note to self: pIC50 recorded for CCc1cccc(-c2cnc(C(=O)NCCOCCNCC(=O)NCCN(C[C@@H](C(=O)N3CCN(c4ncnc5c4[C@H](C)C[C@H]5O)CC3)c3ccc(Cl)cc3)C(C)C)c(N)c2)c1 was 5.30 to 6.00

====

# Test system: MDAMB468.1
# ASSAY_NAME: Cell Titer Glo (CTG) proliferation assay, MDA-MB-468
# Type: cell-based
# EXPERIMENTAL_CONTEXT: MDAMB468.1 cells, 72.0 hrs.; read-out: AVE CTG Proliferation MDAMB468.1 72.0 hrs.
REPORTED_METRIC: IC50

Note to self: IC50 recorded for NC1(C(=O)N[C@@H](CCO)c2ccc(Cl)cc2)CCN(c2nc[nH]c3nccc2-3)CC1 [AZD-5363, Capivasertib, reference compound] was > 10 µM

====

# System: KU1919.1
# ASSAY_NAME: Cell Titer Glo (CTG) proliferation assay, KU1919
# Assay type: cell-based
# EXPERIMENTAL_CONTEXT: Homo sapiens, KU-19-19; KU1919.1 cells, 72.0 hrs.; read-out: AVE CTG Proliferation KU1919.1 72.0 hrs.
Record form. Attribute: IC50. Fill in for each entry.

For orientation, consider the following solved cases.
NC1(C(=O)N[C@@H](CCN2CCN(C(=O)C34CCC(CN5CCN(C(=O)[C@H](NC(=O)c6cccc(C7CCCN(C(=O)C8CC8)C7)c6)C6CCCCC6)CC5)(CC3)OC4)CC2)c2ccc(Cl)cc2)CCN(c2ncnc3[nH]ccc23)CC1 (stereo partly drawn) [Compound I-232]
> 10 µM
NC1(C(=O)N[C@@H](CCN2CCC(OC3CCN(C(=O)c4cccc(C5CCCN(C(=O)CNC6CC6)C5)c4)CC3)CC2)c2ccc(Cl)cc2)CCN(c2ncnc3[nH]ccc23)CC1 (stereo partly drawn) [Compound I-252]
5 to 10 µM
CCc1cccc(-c2cnc(C(=O)N3CCN(CC45CCC(NCC(=O)NCCNC[C@@H](C(=O)N6CCN(c7ncnc8c7[C@H](C)C[C@H]8O)CC6)c6ccc(Cl)cc6)(CC4)CO5)CC3)c(N)c2)c1 [Compound I-195]
> 10 µM
C[C@@H]1C[C@@H](O)c2ncnc(N3CCN(C(=O)[C@H](CNCCNC(=O)CN4CCC(OC5CCN(C(=O)[C@H](NC(=O)c6cccc(C7CCCN(C(=O)C8CC8)C7)c6F)C6CCCCC6)CC5)CC4)c4ccc(Cl)cc4)CC3)c21 (stereo partly drawn) [Compound I-264]
1 to 5 µM
C[C@@H]1C[C@@H](O)c2ncnc(N3CCN(C(=O)[C@H](CNCCNC(=O)CN4CCC(OC5CCN(C(=O)[C@H](NC(=O)c6cccc(C7CCCN(C(=O)CNCc8ccc(F)cc8F)C7)c6)C6CCCCC6)CC5)CC4)c4ccc(Cl)cc4)CC3)c21 (stereo partly drawn) [Compound I-208]
1 to 5 µM
CC(C)(C)OC(=O)N[C@@H](C(=O)N1CCN(CC2CCN(CC(=O)N3CCN(CC[C@H](NC(=O)C4(N)CCN(c5ncnc6[nH]ccc56)CC4)c4ccc(Cl)cc4)CC3)CC2)CC1)C1CCCCC1 [Compound I-310]
1 to 5 µM
NC1(C(=O)N[C@@H](CCNS(=O)(=O)CCCCNC(=O)[C@H](NC(=O)c2cccc(C3CN(C(=O)CNCc4ccc(F)cc4F)C3)c2)C2CCCCC2)c2ccc(Cl)cc2)CCN(c2ncnc3[nH]ccc23)CC1 [Compound I-238]
> 10 µM
CCOc1cc(OC)ccc1CNCC(=O)N1CCCC(c2cccc(C(=O)N[C@@H](C(=O)N3CCN(CC4CCN(CC(=O)NCCN(C[C@@H](C(=O)N5CCN(c6nncc7c6[C@H](C)C[C@H]7O)CC5)c5ccc(Cl)cc5)C(C)C)CC4)CC3)C3CCCCC3)c2)C1 (stereo partly drawn) [Compound I-171]
0.5 to 1 µM

Note to self: IC50 recorded for CCc1cccc(-c2cnc(C(=O)N3CCC(CN4CCN(CC(=O)NCCNC[C@@H](C(=O)N5CCN(c6ncnc7c6[C@H](C)C[C@H]7O)CC5)c5ccc(Cl)cc5)CC4)CC3)c(NC(=O)CNCc3ccncn3)c2)c1 [Compound I-165] was > 10 µM
